The values you see were collected from patent US20240116985A1.

biological target: full-length beta-Catenin (Uniprot ID P35222) (Homo sapiens (Human)) (UniProt P35222); assay: fluorescence polarization competition; full-length beta-catenin with 5FAM-labeled TCF4 (10-53) probe as competitor
Sequence (P35222 whole entry): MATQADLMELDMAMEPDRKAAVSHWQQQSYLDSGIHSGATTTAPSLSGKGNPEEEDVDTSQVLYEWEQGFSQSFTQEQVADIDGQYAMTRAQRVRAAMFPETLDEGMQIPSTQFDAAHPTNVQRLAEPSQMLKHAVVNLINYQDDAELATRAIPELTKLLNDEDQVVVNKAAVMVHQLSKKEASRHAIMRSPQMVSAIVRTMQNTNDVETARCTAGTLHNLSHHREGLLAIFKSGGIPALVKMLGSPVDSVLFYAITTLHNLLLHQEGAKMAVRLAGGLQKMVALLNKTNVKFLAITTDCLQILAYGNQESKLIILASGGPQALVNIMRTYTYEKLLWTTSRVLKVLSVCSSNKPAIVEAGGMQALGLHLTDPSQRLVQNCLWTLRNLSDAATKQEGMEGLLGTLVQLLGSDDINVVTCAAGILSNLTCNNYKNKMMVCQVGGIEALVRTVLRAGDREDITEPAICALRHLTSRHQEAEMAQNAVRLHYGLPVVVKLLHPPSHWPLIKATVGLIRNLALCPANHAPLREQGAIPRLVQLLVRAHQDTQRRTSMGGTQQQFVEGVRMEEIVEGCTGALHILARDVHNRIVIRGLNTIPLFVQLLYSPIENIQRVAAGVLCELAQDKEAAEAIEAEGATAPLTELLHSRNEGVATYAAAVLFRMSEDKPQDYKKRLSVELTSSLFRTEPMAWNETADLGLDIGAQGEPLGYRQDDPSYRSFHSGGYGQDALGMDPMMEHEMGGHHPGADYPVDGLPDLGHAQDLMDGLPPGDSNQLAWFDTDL
pEC50: −log10 of the molar value. Starred links: 1 amine or outer side, 2 acyl side, 3 side chain; linkers in the order of their positions; H or OH if unused. Positions of bridges follow the written chain, without caps; N, C: chain ends. Non-standard residues stand in square brackets, D forms with d. Primed or numbered codes have the meaning given here. PyrS2″ = (S)-3-amino-1-((pent-4-en-1-yloxy)carbonyl)pyrrolidine-3-carboxylic acid (stapling residue), C=CCCCOC(=O)N1CC[C@@](N[*:1])(C(=O)[*:2])C1; B5(4) = 2,2-bis(4-pentenyl)glycine = 2-amino-2-(pent-4-en-1-yl)hept-6-enoic acid (stitching residue), C=CCCCC(CCCC=C)(N[*:1])C(=O)[*:2]; TfeGA = (S)-2-amino-3-((carboxymethyl)(2,2,2-trifluoroethyl)amino)propanoic acid, O=C([C@H](CN(CC(=O)[*:3])CC(F)(F)F)N[*:1])[*:2]; EtGA = (S)-2-amino-3-((carboxymethyl)(ethyl)amino)propanoic acid, CCN(CC(=O)[*:3])C[C@H](N[*:1])C(=O)[*:2]; B5(3) = 2,2-bis(4-pentenyl)glycine (stitching residue), C=CCCCC(CCCC=C)(N[*:1])C(=O)[*:2]; Phe(3-COOH) = N[C@@H](Cc1cccc(C(=O)O)c1)C(=O)O; Bta = N[C@@H](Cc1csc2ccccc12)C(=O)O; αAllylPro = C=CC[C@@]1(C(=O)O)CCCN1; tBuAla = CC(C)(C)C[C@H](N)C(=O)O; 3Thi = N[C@@H](Cc1ccsc1)C(=O)O
readout: pEC50

• Ac-[αAllylPro]D[tBuAla][B5(4)]D[EtGA]AAFS[PyrS2″][3Thi][Bta]S-NH2 (staple 1-4, 4-11; also: earlier eluting HPLC staple isomer) [I-974] = 5.75
• Ac-[αAllylPro]D[tBuAla][B5(3)]D[TfeGA]AAFF[PyrS2″]Y[Bta]Q-NH2 (staple 1-4, 4-11) [I-989] = 7.06
• Ac-[αAllylPro]D[tBuAla][B5(4)]D[Phe(3-COOH)]AAFT[PyrS2″][3Thi][Bta]Q-NH2 (staple 1-4, 4-11; also: later eluting HPLC staple isomer) [I-981] = 6.70
• Ac-[αAllylPro]D[tBuAla][B5(4)]D[Phe(3-COOH)]AAFF[PyrS2″][3Thi][Bta]S-NH2 (staple 1-4, 4-11; also: earlier eluting HPLC staple isomer) [I-982] = 6.72
